- study-target: Torsin-1A-interacting protein 1 (Homo sapiens)
- protocol-description: LAP1 binders from COS7 cell lysate, primary screen, small-molecule microarray, 635/667 nm fluorescence (AID 1116)
- condition-set: COS7-hLAP1 lysate binding, 635 nm fluorescence, higher = more signal
Please go through the items and note down their composite z-score.
# output: bare number, no unit

Endpoint output: composite z-score of [N-]=[N+]=NCc1ccccc1C[C@]1(C(N)=O)N=C(c2ccc(OCCCO)cc2)O[C@H]1c1ccccc1CN=[N+]=[N-] . Value?
1.32

What value of composite z-score has been recorded for this entry: C[C@@H]1CC[C@H]2C(=O)N3CCC[C@H]3C(=O)N2[C@H]1c1ccc(Br)cc1
0.324

Fill in the blank: the reported composite z-score of COc1cc([C@@H]2N[C@H](C(=O)O)Cc3c2[nH]c2ccccc32)cc(OC)c1OC is ____.
0.0517

Need composite z-score, item CCCC=C(CCC)[C@@H](NS(=O)(=O)c1cccc(C(F)(F)F)c1)c1ccc(C(=O)OC)cc1
0.209

For CCCCCCc1nc(-c2cc(C)c(OC)c(C)c2)cc2c1[Si](C(C)C)(C(C)C)O[C@H]2c1ccccc1 , what is its reported composite z-score?
-0.872

Can you share its composite z-score? I mean this compound: COC(=O)[C@@]1(Cc2ccccc2N=[N+]=[N-])N=C(c2ccc(OCCCO)cc2)O[C@H]1c1ccccc1CN=[N+]=[N-]
0.889

Requested read-out: composite z-score. Entry: C=CCC(OC(C)=O)[C@@H]1[C@@H](N(Cc2cc3ccccc3o2)C(=O)Cc2ccc(F)cc2)c2cc(OCCCO)ccc2N1C(=O)c1ccc(-c2ccccc2)cc1 (stereo not given in full)
-0.467

Sample CO[C@H]1COC(=O)[C@@H](OCc2ccccc2)C=C[C@H](C)[C@@H](OC)COC(=O)[C@H](OCc2ccccc2)C=C[C@@H]1C — what was its composite z-score?
-0.144

Look up composite z-score for this compound: Cc1ccc(S[C@]2(C(=O)NCCCN(C)C)CC(=O)N(C3CCCCC3)[C@@H]2c2ccc(CO)cc2I)cc1
0.123

Please look up its composite z-score: CO[C@H]1COC(=O)CC=C[C@@H](C)COC(=O)[C@@H](C)NC(=O)CC=C[C@@H]1C
-0.229

I would be grateful if you could share the reported composite z-score for Cc1ccc(N2C(=O)c3ccccc3[C@@H](C(=O)NCC(F)(F)F)[C@@H]2c2ccc(CO)cc2)nc1 .
0.153

Consider the compound CCCC=C(CCC)[C@@H](NC(=O)c1ccccc1)c1ccccc1 and give its measured composite z-score.
-0.439

# query: composite z-score of entry C=CCC(OC(C)=O)[C@@H]1[C@@H](N(Cc2ccc(-c3ccccc3)cc2)C(=O)c2ccc(C)cc2)c2cc(OCCCO)ccc2N1C(=O)c1ccc(-c2ccccc2)cc1 (stereo not given in full)
0.116

Form field: reported composite z-score of COC(=O)[C@H]1[C@@H]2COc3ccccc3[C@H]2N[C@H]1C(=O)OC
0.0767

Need composite z-score of COCCOC(=O)N1C(=O)[C@@]2(c3cc(C#CCCO)ccc31)[C@H](c1ccc(OCCO)cc1)N1[C@H](c3ccccc3)[C@H](c3ccccc3)OC(=O)[C@H]1[C@@H]2C(=O)NC[C@H](O)c1ccccc1 , thanks.
1.29

###

- protocol-description: small-molecule binders of probe aInhba, primary screen, biochemical, small-molecule microarray, 635/667 nm fluorescence (AID 1148);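 further: score merges 667nm spot fluorescence with signal-to-noise for antibody binding to printed compounds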
- condition-set: higher = more signal
reported-endpoint: composite z-score
Give the figure only, with no unit attached.

# input compound: C=CCNC(=O)[C@@H]1[C@H]2C(=O)O[C@H](c3ccccc3)[C@H](c3ccccc3)N2[C@H](c2ccc(OCCO)cc2)[C@@]12C(=O)N(C(=O)OCCOC)c1ccc(C#CC3(O)CCCCCC3)cc12 ; wanted: its composite z-score
0.167

Which composite z-score is reported for this compound? O=C1O[C@@H](c2ccccc2)[C@@H](c2ccccc2)N2[C@@H](c3ccc(O)cc3)[C@]3(C(=O)Nc4ccc(C#CC5(O)CCCCCC5)cc43)[C@@H](C(=O)Nc3nc4ccccc4s3)[C@H]12
-0.438

Please look up its composite z-score: C=CCOC(=O)[C@@H]1[C@H]2C(=O)O[C@H](c3ccccc3)[C@H](c3ccccc3)N2[C@H](c2ccc(OCCOC(=O)[C@H]3C[C@H]4C(=O)N[C@@H](CCCCNC(C)=O)C(=O)N4[C@H]3c3ccc(O)cc3)cc2)[C@@]12C(=O)Nc1ccc(I)cc12
0.0073

# composite z-score lookup, item CO[C@H]1COC(=O)[C@H](Cc2ccccc2)NC(=O)CC=C[C@@H](C)[C@H](OC)COC(=O)CC=C[C@@H]1C
-0.0954

Form field: reported composite z-score of C=CCNC(=O)[C@H]1[C@@H]2C(=O)O[C@@H](c3ccccc3)[C@@H](c3ccccc3)N2[C@@H](c2ccccc2OCCO)[C@]12C(=O)N(C(=O)OCCOC)c1ccc(C#CCC(C(=O)OC)C(=O)OC)cc12
0.225

Given the entry Cc1cc(C)c(C(O)C2C=CC3C(=O)N(C)C(=O)C3N2N2CCCCC2)c(C)c1 (stereo unspecified) , report its measured composite z-score.
0.233

###

Assign composite z-score to each entry below.
- study-target: Torsin-1A-interacting protein 1 (Homo sapiens)
- protocol-description: LAP1 binders from COS7 cell lysate, primary screen, small-molecule microarray, 635/667 nm fluorescence (AID 1116)
- condition-set: COS7-hLAP1 lysate binding, 635 nm fluorescence, higher = more signal

Quick one: composite z-score for COC(=O)Cn1c(C(=O)N2CCCC2)cc2c1C[C@H]1CN(C(=O)c3ccccc3)[C@@](Cc3ccccc3)(C(=O)OC)[C@@H]21 ?
0.261

Look at this compound and give its reported composite z-score. O=C1O[C@@H](c2ccccc2)[C@@H](c2ccccc2)N2[C@@H](c3ccc(O)cc3)[C@]3(C(=O)Nc4ccc(C#CC5(O)CCCCCC5)cc43)[C@@H](C(=O)Nc3nc4ccccc4s3)[C@H]12
1.18

Which value of composite z-score has been reported for C=CC[C@]1(C(=O)NCC(O)CO)N=C(c2ccc(OCCCO)cc2)O[C@H]1c1ccccc1 (some centres not stated) in the records?
3.97

Can you look up the measured composite z-score of C=CC[C@@]1(C(=O)N2CCOCC2)N=C(c2ccc(OCCCO)cc2)O[C@@H]1c1ccccc1 for me?
1.68

Entry under review: C[C@@H]1NC(=O)CC=C[C@@H](C)[C@@H]2C=C[C@H](O)[C@@H](COC(=O)[C@H](C)NC(=O)CC=C[C@@H](C)[C@@H]3C=C[C@H](O)[C@@H](COC1=O)O3)O2 . Reported composite z-score?
-0.166

Give the measured composite z-score of CCCC=C(CCC)[C@@H](NS(=O)(=O)c1ccc(C(F)(F)F)cc1)c1ccc(-c2ccccc2)cc1 .
0.0541

Name the reported composite z-score value associated with the compound CCN1C(C)=C(C(=O)OC)[C@@H](c2ccccc2)N2C(=O)[C@@]3(C(=O)OC)O[C@@]12[C@@H]1C(=O)N(c2ccccc2)C(=O)[C@@H]13
0.905

###

- study-target: Neurogenic locus notch homolog protein 2 (Homo sapiens) (UniProt Q04721)
- Sequence (Q04721 whole entry, looked up): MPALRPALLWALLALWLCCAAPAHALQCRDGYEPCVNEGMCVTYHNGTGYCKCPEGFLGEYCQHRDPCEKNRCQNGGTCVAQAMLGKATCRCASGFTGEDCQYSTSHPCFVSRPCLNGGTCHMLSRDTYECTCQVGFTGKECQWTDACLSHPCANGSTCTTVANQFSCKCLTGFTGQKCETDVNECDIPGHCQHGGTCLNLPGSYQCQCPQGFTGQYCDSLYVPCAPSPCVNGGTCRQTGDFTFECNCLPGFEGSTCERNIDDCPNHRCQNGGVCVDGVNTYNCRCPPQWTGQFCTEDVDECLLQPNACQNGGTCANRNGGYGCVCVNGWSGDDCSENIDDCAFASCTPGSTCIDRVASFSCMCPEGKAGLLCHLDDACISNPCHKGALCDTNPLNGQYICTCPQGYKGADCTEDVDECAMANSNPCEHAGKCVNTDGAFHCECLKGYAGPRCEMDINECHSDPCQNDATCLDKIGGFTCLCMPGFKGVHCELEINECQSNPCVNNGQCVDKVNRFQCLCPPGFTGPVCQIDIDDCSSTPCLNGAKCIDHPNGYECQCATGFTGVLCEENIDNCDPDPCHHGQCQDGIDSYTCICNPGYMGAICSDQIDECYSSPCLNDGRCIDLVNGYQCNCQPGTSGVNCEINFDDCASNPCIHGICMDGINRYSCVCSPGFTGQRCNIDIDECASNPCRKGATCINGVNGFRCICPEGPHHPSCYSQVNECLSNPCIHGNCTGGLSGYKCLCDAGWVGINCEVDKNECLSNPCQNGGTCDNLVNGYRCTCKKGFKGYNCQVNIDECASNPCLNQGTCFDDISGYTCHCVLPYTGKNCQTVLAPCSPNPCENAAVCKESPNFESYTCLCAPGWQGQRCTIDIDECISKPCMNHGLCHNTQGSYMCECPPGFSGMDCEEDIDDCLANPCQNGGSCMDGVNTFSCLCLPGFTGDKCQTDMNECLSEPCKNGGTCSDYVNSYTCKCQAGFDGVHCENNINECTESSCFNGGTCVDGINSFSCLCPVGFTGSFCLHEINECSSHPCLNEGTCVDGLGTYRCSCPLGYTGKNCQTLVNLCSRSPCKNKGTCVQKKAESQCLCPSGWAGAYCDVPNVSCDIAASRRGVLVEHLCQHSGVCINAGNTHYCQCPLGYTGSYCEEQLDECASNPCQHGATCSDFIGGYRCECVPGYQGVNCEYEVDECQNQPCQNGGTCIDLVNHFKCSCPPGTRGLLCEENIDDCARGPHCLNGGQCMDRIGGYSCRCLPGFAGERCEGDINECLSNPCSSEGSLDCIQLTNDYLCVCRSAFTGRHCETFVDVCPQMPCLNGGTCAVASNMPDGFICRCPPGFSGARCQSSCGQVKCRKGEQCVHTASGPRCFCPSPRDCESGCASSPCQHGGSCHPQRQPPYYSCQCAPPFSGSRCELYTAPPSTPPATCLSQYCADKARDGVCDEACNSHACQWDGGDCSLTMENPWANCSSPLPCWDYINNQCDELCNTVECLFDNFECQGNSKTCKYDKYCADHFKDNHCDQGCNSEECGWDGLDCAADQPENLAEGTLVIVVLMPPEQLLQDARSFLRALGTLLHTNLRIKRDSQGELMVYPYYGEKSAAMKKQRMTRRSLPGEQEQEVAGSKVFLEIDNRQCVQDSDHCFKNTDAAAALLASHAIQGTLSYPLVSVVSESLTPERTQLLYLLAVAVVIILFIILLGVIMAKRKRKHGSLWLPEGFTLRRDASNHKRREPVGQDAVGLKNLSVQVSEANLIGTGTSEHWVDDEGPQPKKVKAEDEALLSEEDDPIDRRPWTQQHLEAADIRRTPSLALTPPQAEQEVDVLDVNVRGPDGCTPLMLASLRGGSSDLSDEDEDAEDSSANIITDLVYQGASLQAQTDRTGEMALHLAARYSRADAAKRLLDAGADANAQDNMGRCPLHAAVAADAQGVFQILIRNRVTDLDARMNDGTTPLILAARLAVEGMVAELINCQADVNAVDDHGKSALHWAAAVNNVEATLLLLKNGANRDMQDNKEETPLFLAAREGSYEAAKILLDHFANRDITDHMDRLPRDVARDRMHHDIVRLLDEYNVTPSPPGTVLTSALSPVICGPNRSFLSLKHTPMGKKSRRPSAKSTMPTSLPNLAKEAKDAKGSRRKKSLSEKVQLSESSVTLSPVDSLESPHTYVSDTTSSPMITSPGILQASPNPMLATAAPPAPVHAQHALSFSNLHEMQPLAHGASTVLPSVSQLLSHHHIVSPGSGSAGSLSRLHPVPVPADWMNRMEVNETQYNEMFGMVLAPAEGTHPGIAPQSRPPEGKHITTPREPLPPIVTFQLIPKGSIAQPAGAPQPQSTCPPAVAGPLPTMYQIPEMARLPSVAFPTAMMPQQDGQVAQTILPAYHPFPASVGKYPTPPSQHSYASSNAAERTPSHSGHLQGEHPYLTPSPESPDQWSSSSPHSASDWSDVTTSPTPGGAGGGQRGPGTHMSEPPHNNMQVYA
- protocol-description: Notch2 binders on small-molecule microarrays, primary screen, biochemical, small-molecule microarray, 635 nm fluorescence, stem cell growth factors (AID 1073)
- condition-set: Notch2 binding, higher = more signal
Respond with 1.0 for composite z-score values of 1 and above, 0.0 for values below.

Does the molecule CO[C@H]1O[C@H](CO)[C@@H](OC(=O)Nc2ccccc2)[C@H](OC(=O)Nc2ccc3c(c2)OCO3)[C@@H]1OC(=O)Nc1ccc2c(c1)OCO2 have recorded composite z-score that is 1 or more?
0.0

Assess whether reported composite z-score for CC(C)[Si](OCCCNS(=O)(=O)c1ccc(Br)cc1)(C(C)C)C(C)C sits at 1 or higher.
1.0

Identify whether the reported composite z-score of the following molecule is 1 or greater: [N-]=[N+]=NCc1ccccc1C[C@@]1(C(=O)O)N=C(c2ccc(OCCCO)cc2)O[C@@H]1c1ccccc1N=[N+]=[N-]
1.0

Identify whether the reported composite z-score of the following molecule is 1 or greater: COc1ccc([Si](C)(C)[C@H]2[C@H](CC(=O)N(CCO)Cc3ccccc3)O[C@@]3(C(=O)N(C)c4ccccc43)[C@@H]2C)cc1
0.0

In plain terms: is recorded composite z-score at least 1 for C=CCC(OC(C)=O)[C@@H]1[C@@H](N(Cc2ccc(-c3ccccc3)cc2)C(=O)c2ccc(-c3ccccc3)cc2)c2cc(OCCCO)ccc2N1C(=O)Cc1ccc(OC)cc1 (some centres not stated) ?
0.0

Check this molecule for composite z-score at or above 1: CC(C)C[C@@H]1NC(=O)[C@H]2C[C@@H](C(=O)NCCCCCC[N+](C)(C)C)[C@@H](c3ccc(O)cc3)N2C1=O
0.0

Values compiled from PubChem BioAssay.
